Hey, just so you know, these numbers are from patent US11053226B2.

Target desc: GDP-bound KRAS protein (aa 1-169), containing both G12C and C118A amino acid substitutions (Homo sapiens (Human), UniProt P01116, C118A/G12C)
Sequence (P01116 other isoform, or with tags, fused parts or gaps G12C/C118A): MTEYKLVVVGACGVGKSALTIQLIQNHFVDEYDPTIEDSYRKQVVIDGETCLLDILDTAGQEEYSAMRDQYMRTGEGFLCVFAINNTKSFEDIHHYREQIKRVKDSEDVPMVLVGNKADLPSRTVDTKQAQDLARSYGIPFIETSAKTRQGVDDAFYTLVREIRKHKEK
Protocol summary: Coupled Nucleotide Exchange Assay
Format: biochemical
Condition parameters: read-out: Coupled Exchange IC50 (2 h); 2 h compound pre-incubation
Protocol: For compounds in Table 9, the following assay conditions were employed: Coupled Nucleotide Exchange Assay: The assay plates were then read on a PerkinElmer EnVision Multilabel Reader, using AlphaScreen® technology, and data were analyzed using a 4-parameter logistic model to calculate IC50 values.
So basically every entry gets a class from its IC50, ranges being low-valued (below 0.4 µM), mid-valued (0.4 µM to below 10 µM), high-valued (10 µM or more)

Task: Would you mind sorting C=CC(=O)N1CC(NC(=O)Cn2cc(-c3ccccc3OC)c3cc(-c4ccccc4OC)ccc32)C1 [Example 209] into the appropriate category?
Output: high-valued

Task: What about C=CC(=O)N1CC(NC(=O)Cn2cc(C(=O)NCCC(=O)Nc3ccccc3CC)c3cc(Br)cc(C)c32)C1 [Example 177] ?
Output: mid-valued

Task: Now this one: C=CC(=O)N1CC(NC(=O)Cn2c(C)c(C(=O)N3Cc4ccccc4CC3C)c3cc(Br)cc(C)c32)C1 (stereo not shown) [Example 39]
Output: low-valued

Task: Same question for C=CC(=O)N1CC(NC(=O)Cn2ccc3cc(SC)ccc32)C1 [Example 266] please.
Output: high-valued

Task: Same question, C=CC(=O)N1CC(NC(=O)Cn2cc(-c3ccccc3-c3ccccc3)c3cc(Br)cc(C)c32)C1 [Example 62] this time
Output: mid-valued

Task: Next up: C=CC(=O)N1CC(NC(=O)Cn2c(C)c(C(=O)N3[C@H](C)c4ccc(F)cc4C[C@@H]3C)c3cc(Br)cc(C)c32)C1 [Example 9]
Output: low-valued

Task: And what about the compound C=CC(=O)N1CC(NC(=O)Cn2cc(C(=O)NCCC(=O)Nc3cccc4ccccc34)c3cc(Br)ccc32)C1 [Example 170] ?
Output: mid-valued

Task: Same question for C=CC(=O)N1CC(NC(=O)Cn2ccc3ccc(Br)cc32)C1 [Example 182] please.
Output: high-valued

Task: Thanks! And C=CC(=O)N1CC(NC(=O)Cn2cc(-c3cccnc3)c3cc(Br)ccc32)C1 [Example 206] ?
Output: high-valued

Task: // repeat for C=CC(=O)N1CC(NC(=O)Cn2c3c(c4cc(Br)ccc42)C=NCC3)C1 [Example 238] and report
Output: high-valued

Task: Request: C=CC(=O)N1CC(NC(=O)Cn2c(C)c(C(=O)N3CCc4ccccc4[C@@H]3C)c3cc(Br)cc(C)c32)C1 [Example 2-2-2]
Output: mid-valued

Task: One more compound: C=CC(=O)N1CC(NC(=O)Cn2cc(-c3cccc(C#N)c3)c3cc(Br)ccc32)C1 [Example 216]
Output: high-valued

Task: Also need C=CC(=O)N1CC(NC(=O)Cn2c(C)c(C(=O)N3CCc4c(cccc4OC)C3)c3cc(Br)ccc32)C1 [Example 13] , thanks.
Output: low-valued

Task: Now this one: C=CC(=O)N1CC(NC(=O)Cn2c(C)c(-c3ccccc3N3CCCC3)c3cc(Cl)ccc32)C1 [Example 5-4]
Output: low-valued

Task: Try the compound C=CC(=O)N1CC(NC(=O)Cn2cc(C3CC3)c3cc(Br)ccc32)C1 [Example 132]
Output: mid-valued

Task: Also, C=CC(=O)N1CC(NC(=O)Cn2cc(I)c3cc(Cl)ccc32)C1 [Example 139] please.
Output: mid-valued
